- assayTarget: full-length beta-Catenin (Uniprot ID P35222) (Homo sapiens)
- Construct: 10 nM full-length beta-Catenin (Uniprot ID P35222)
- Sequence (P35222 1-781): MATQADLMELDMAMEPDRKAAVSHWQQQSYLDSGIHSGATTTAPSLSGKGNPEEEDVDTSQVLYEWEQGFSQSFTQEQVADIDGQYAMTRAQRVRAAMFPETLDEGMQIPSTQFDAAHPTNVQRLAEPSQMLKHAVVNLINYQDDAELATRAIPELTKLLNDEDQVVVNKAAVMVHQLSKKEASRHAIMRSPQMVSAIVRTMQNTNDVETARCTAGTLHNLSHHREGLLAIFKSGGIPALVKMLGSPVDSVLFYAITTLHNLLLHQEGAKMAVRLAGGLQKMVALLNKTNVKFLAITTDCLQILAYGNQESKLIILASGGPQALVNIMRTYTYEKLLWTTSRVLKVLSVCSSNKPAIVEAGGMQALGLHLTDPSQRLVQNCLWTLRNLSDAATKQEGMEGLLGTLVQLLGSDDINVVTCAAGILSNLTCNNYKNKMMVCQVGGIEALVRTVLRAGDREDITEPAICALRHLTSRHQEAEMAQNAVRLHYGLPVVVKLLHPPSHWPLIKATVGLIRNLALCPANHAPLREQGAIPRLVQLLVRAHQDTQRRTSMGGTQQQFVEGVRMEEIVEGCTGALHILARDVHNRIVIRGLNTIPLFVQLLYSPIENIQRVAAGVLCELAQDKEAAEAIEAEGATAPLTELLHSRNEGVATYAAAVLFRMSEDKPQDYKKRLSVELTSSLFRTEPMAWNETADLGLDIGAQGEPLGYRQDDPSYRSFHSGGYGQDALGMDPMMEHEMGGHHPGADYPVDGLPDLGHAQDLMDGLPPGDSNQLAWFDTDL
- test: Fluorescence polarization IC50 (beta-catenin / 5FAM-TCF4 10-53 competition)
- Type: binding
- appliedConditions: FP EC50 (nM), fluorescence polarization, beta-catenin
measuredMetric: IC50 (nM)
Answers are plain numbers, in nM.

Look up IC50 for the entries below, preserving their order.
1. CC(=O)N1CCC[C@]12CC=CCCCC1(CCCC=CCCCOC(=O)N3CC[C@@](C(=O)N[C@@H](Cc4ccsc4)C(=O)N[C@@H](Cc4csc5ccccc45)C(=O)N[C@@H](CCCCNC(=O)CN=[N+]=[N-])C(N)=O)(C3)NC(=O)[C@H](CC(N)=O)NC(=O)[C@H](Cc3ccccc3)NC(=O)[C@H](C)NC(=O)[C@H](C)NC(=O)[C@H](CC(=O)O)NC(=O)[C@H](CC(=O)O)NC1=O)NC(=O)[C@H](CC(C)(C)C)NC(=O)[C@H](CC(=O)O)NC2=O (stereo partly drawn) [I-878]
2. CC(=O)N1CCC[C@]12CC=CCCCC1(CCCC=CCCCOC(=O)N3CC[C@@](C(=O)N[C@@H](Cc4ccsc4)C(=O)N[C@@H](Cc4csc5ccccc45)C(=O)N[C@@H](CCC(N)=O)C(N)=O)(C3)NC(=O)[C@H](CC(N)=O)NC(=O)[C@H](Cc3ccccc3)NC(=O)[C@H](C)NC(=O)[C@H](CCCCNC(=O)CN=[N+]=[N-])NC(=O)[C@H](CC(=O)O)NC(=O)[C@H](CC(=O)O)NC1=O)NC(=O)[C@H](CC(C)(C)C)NC(=O)[C@H](CC(=O)O)NC2=O (stereo partly drawn) [I-879]
3. C[C@@H]1NC(=O)[C@H](C)NC(=O)[C@H](CC(=O)O)NC(=O)[C@H](CC(=O)O)NC(=O)C2(CCCC=CCCCOC(=O)N3CC[C@@](C(=O)N[C@@H](Cc4ccccc4)C(=O)N[C@@H](Cc4csc5ccccc45)C(=O)N[C@@H](Cc4c[nH]cn4)C(N)=O)(C3)NC(=O)[C@H](CC(N)=O)NC(=O)[C@H](Cc3ccccc3)NC1=O)CCCC=CC[C@]1(CCCN1C(=O)CN=[N+]=[N-])C(=O)N[C@@H](CC(=O)O)C(=O)N[C@@H](CC(C)(C)C)C(=O)N2 (stereo partly drawn) [I-1055]

Output:
[6, 6, 7]
